study-system: Met receptor (EGFR/Met chimeric cells, EMR) (Homo sapiens, UniProt P08581)
Construct: expressed in transfected cells; the other entry of the earlier key: EGFR (P00533, Epidermal growth factor receptor)
Sequence (P08581 with tags, fused parts or gaps): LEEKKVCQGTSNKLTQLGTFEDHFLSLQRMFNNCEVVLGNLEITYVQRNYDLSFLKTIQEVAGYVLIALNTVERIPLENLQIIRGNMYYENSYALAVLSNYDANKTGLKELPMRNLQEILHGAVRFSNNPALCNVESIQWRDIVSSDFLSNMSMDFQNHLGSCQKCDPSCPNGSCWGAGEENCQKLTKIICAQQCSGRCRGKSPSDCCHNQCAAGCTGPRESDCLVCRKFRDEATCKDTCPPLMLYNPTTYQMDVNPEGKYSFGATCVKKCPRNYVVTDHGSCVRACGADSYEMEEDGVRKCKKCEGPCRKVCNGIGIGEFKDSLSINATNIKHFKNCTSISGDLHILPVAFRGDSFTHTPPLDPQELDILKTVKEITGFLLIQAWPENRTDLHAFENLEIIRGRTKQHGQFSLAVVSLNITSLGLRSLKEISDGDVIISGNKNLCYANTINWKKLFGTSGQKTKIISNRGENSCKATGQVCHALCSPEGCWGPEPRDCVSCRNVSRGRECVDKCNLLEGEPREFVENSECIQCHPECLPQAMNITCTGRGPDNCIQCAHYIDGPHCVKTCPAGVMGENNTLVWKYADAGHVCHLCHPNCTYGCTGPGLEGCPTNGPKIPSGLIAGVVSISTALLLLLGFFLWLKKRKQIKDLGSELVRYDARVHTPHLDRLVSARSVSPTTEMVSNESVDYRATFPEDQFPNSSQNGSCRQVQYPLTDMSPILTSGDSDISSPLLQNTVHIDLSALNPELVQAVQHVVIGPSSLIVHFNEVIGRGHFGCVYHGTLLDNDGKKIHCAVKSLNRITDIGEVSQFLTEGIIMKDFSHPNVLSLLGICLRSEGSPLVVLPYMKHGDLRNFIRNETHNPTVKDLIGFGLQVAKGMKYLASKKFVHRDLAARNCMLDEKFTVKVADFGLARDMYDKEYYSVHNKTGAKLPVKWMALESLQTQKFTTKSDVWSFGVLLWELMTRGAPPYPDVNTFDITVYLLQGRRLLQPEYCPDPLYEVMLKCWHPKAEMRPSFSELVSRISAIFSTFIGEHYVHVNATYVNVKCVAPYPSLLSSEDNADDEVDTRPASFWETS
protocol-notes: Met Autophosphorylation Assay
Format: biochemical
Category scheme (Met Kinase % Inhibition (P.130)): bin 0 = under 40%, bin 1 = from 40% up to 60%, bin 2 = 60% and over

{"compound": "Cc1c(Br)cc(Br)c2c1C(=Cc1cccc3ccccc13)C(=O)N2 [10735/H09]", "study-system": "Met receptor (EGFR/Met chimeric cells, EMR) (Homo sapiens, UniProt P08581)", "assigned-label": "bin 0"}
{"compound": "CNS(=O)(=O)c1ccc2c(c1)C(=Cc1ccccc1F)C(=O)N2 [10736/D08]", "study-system": "Met receptor (EGFR/Met chimeric cells, EMR) (Homo sapiens, UniProt P08581)", "assigned-label": "bin 0"}
{"compound": "Cc1c(Br)cc(Br)c2c1C(=Cc1cccc(C(F)(F)F)c1F)C(=O)N2 [10728/H07]", "study-system": "Met receptor (EGFR/Met chimeric cells, EMR) (Homo sapiens, UniProt P08581)", "assigned-label": "bin 1"}
{"compound": "CC(=O)Oc1ccc(C=C2C(=O)Nc3c(Br)cc(Br)c(C)c32)cc1OC(C)=O [10723/H05]", "study-system": "Met receptor (EGFR/Met chimeric cells, EMR) (Homo sapiens, UniProt P08581)", "assigned-label": "bin 2"}
{"compound": "Cc1c(Br)cc(Br)c2c1C(=Cc1ccc(F)cc1C(F)(F)F)C(=O)N2 [10719/H11]", "study-system": "Met receptor (EGFR/Met chimeric cells, EMR) (Homo sapiens, UniProt P08581)", "assigned-label": "bin 1"}
{"compound": "CCN(CC)c1ccc(C=C2C(=O)Nc3ccc(S(=O)(=O)Nc4ccc(C(F)(F)F)cc4)cc32)c(O)c1 [10734/E05]", "study-system": "Met receptor (EGFR/Met chimeric cells, EMR) (Homo sapiens, UniProt P08581)", "assigned-label": "bin 2"}
{"compound": "Cc1c(Br)cc(Br)c2c1C(=Cc1ccc3ccccc3c1O)C(=O)N2 [10718/H04]", "study-system": "Met receptor (EGFR/Met chimeric cells, EMR) (Homo sapiens, UniProt P08581)", "assigned-label": "bin 2"}
{"compound": "O=C1Nc2ccc(S(=O)(=O)Nc3ccc(C(F)(F)F)cc3)cc2C1=Cc1cccc2ccccc12 [10735/E09]", "study-system": "Met receptor (EGFR/Met chimeric cells, EMR) (Homo sapiens, UniProt P08581)", "assigned-label": "bin 0"}

In: Exercise: read the entry O=C1Nc2ccc(CCCl)cc2C1=Cc1cc(Cl)ccc1O [10734/G04] and state which class it falls under.
Out: bin 2

In: Exercise: read the entry COc1cc(Br)cc(C=C2C(=O)Nc3c(Br)cc(Br)c(C)c32)c1O [10733/H08] and state which class it falls under.
Out: bin 1

In: Exercise: read the entry Cc1c(Br)ccc2c1C(=Cc1cc(Cl)cc(Cl)c1O)C(=O)N2 [10734/C03] and state which class it falls under.
Out: bin 2

In: Exercise: read the entry O=C1Nc2ccc(I)cc2C1=Cc1cc(Br)cc(Br)c1O [10734/B07] and state which class it falls under.
Out: bin 2

In: Exercise: read the entry Cc1c(Br)cc(Br)c2c1C(=Cc1ncc[nH]1)C(=O)N2 [10720/H11] and state which class it falls under.
Out: bin 0
